- targetOfAssay: Homeobox protein Hox-A13 (Mus musculus)
- testDetails: inhibitors of HoxA13-DNA binding, primary screen, biochemical, fluorescence polarization, labeled oligonucleotide (AID 1185)
- assayContext: 15 min, higher = more signal, called active from +8 up or from −8 down
propertyName: z-score
# answer = number (no unit)

Reported z-score of `C=C(CCCC)C(=O)CC[C@H](OC(=O)c1ccccc1-c1ccccc1C(=O)O)c1ccccc1OCCO` : -5.63

Reported z-score of C=C(C)[C@@H]1CC=C(C(O)C2C=CC3C(=O)N(c4ccccc4)C(=O)C3N2Nc2ccc(C#N)cc2)CC1 (some centres undefined) : 1.21

Reported z-score of O=C1C2C=CC(C(O)c3ccc4c(c3)OCO4)N(Nc3ccccc3)C2C(=O)N1c1ccccc1 (centres undefined) : -1.49

Reported z-score of `COCC1=C2[C@@H](CCc3ccccc3)OB(O)C[C@@H]2[C@@H]2C(=O)N(C)C(=O)[C@@H]2C1` : -7.72

* * *

Answer each item with its documented composite z-score.
- targetOfAssay: Calmodulin-1 (Homo sapiens)
- testDetails: CALM1 binders on microarrays, EGTA buffer, profiling panel, biochemical, small-molecule microarray, Cy5-labelled CALM1 (AID 1111);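 note: labelled calmodulin applied in Tris saline Tween buffer holding calcium plus EGTA and DTT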
- assayContext: Cy5-CALM1 binding fluorescence, higher = more signal
# answer = number (no unit)

The measured composite z-score that `CC(C)C(=C=CC[C@H](O)c1cccc(OCCO)c1)CCO` showed for Calmodulin-1 (Homo sapiens) is -0.427

The measured composite z-score that COc1ccc(C(O)C2C=CC3C(=O)N(c4ccccc4)C(=O)C3N2Nc2ccccc2)cc1 (stereo not drawn) showed for Calmodulin-1 (Homo sapiens) is 0.553

The measured composite z-score that `COc1cc(CO)cc(I)c1O[C@H]1C=C(C(=O)NCCO)C[C@@H](NCC2CCCCC2)[C@@H]1O` showed for Calmodulin-1 (Homo sapiens) is -0.11

The measured composite z-score that `C=C(/C(=C/C[C@@H](OC(C)=O)c1ccc(CO)o1)c1cc(C(=O)OC)ccc1OC)C(C)C` showed for Calmodulin-1 (Homo sapiens) is 0.189

The measured composite z-score that CC(C)CCC[C@@H](C)[C@H]1CC[C@@]2(C)C3=C(CC[C@]12C)[C@@]1(C)CC[C@H](OC(=O)c2ccccc2)C(C)(C)C1CC3 (stereo partly drawn) showed for Calmodulin-1 (Homo sapiens) is -0.0989

The measured composite z-score that CCC(CC)C(O)C1C=CC2C(=O)N(c3ccccc3)C(=O)C2N1Nc1ccc([N+](=O)[O-])cc1 (stereo not drawn) showed for Calmodulin-1 (Homo sapiens) is 1.27

The measured composite z-score that `C=CCN1C(=O)[C@@]2(O[C@@H](CCO)[C@H]([Si](C)(C)c3ccc(OC)cc3)[C@H]2C)c2cc(N3CCOC3=O)ccc21` showed for Calmodulin-1 (Homo sapiens) is 0.278

The measured composite z-score that C=CCC(OC(C)=O)[C@@H]1[C@@H](N(Cc2cccc3ccccc23)C(=O)c2cccc3ccccc23)c2cc(OCCCO)ccc2N1C(=O)c1ccc2ccccc2c1 (stereo partly drawn) showed for Calmodulin-1 (Homo sapiens) is -0.0677

* * *

Answer each item with its documented z-score.
- testDetails: Plasmodium falciparum growth inhibition, primary screen, strain 3D7, DAPI fluorescence, 100 nL (AID 1184);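 note: parasites grown inside human red blood cells in medium with human serum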
- assayContext: P. falciparum 3D7 growth, 3 d, higher = more signal
# answer = number (no unit)

Reported z-score of `COCCOC(=O)N1C(=O)[C@@]2(c3cc(C#CCCO)ccc31)[C@H](c1ccccc1OCCO)N1[C@H](c3ccccc3)[C@H](c3ccccc3)OC(=O)[C@H]1[C@@H]2C(=O)N1CCCCCCC1` : -2.25

Reported z-score of `COC(=O)[C@@]1(Cc2ccc(F)cc2)[C@H]2c3cc(C(=O)N(C)C)n(Cc4ccc(O)c(OC)c4)c3C[C@H]2CN1C(=O)c1ccccc1` : -1.76

Reported z-score of C=CCC(OC(C)=O)[C@@H]1[C@@H](N(Cc2cccc3ccccc23)C(=O)c2ccc(-c3ccccc3)cc2)c2cc(OCCCO)ccc2N1C(=O)c1ccc(-c2ccccc2)cc1 (some centres undefined) : 0.579

Reported z-score of `CCOC(=O)C1=CC[C@@H](c2ccccc2)N(S(=O)(=O)c2ccc(C)cc2)[C@H]1c1cccc(OC)c1` : -2.14

Reported z-score of `O=C1N(CCS(=O)(=O)c2ccccc2)Cc2ccccc2[C@@H]2OC(c3ccc(OCCCO)cc3)=N[C@]12CCS(=O)(=O)c1ccccc1` : -2.1

Reported z-score of COc1cc(NN2C(C(O)C3CCCCC3)C=CC3C(=O)N(C)C(=O)C32)cc(OC)c1OC (centres undefined) : -0.246

Reported z-score of `CO[C@H]1O[C@H](CO)[C@@H](OC(=O)Nc2cccc(F)c2)[C@H](OC(=O)Nc2ccccc2-c2ccccc2)[C@H]1OC(=O)Nc1ccccc1-c1ccccc1` : -1.7

Reported z-score of `Cc1c(NC(=O)/C(C#N)=C/c2ccccc2Cl)c(=O)n(-c2ccccc2)n1C` : 0.419

Reported z-score of Cc1ccc(C(C)CC(O)C2C=CC3C(=O)N(c4ccccc4)C(=O)C3N2Nc2ccc(C#N)cc2)o1 (centres undefined) : 0.25

Reported z-score of `CCCCC=C[C@@H](NC(=O)c1ccccc1)c1ccccc1` : -1.47

Reported z-score of `COCCOC(=O)N1C(=O)[C@@]2(c3cc(C#CC4(O)CCCCCC4)ccc31)[C@H](C(=O)N1CCN(c3ncccn3)CC1)[C@H]1C(=O)O[C@H](c3ccccc3)[C@H](c3ccccc3)N1[C@@H]2c1ccccc1OCCO` : -2.07

Reported z-score of `COCCOC(=O)N1C(=O)[C@@]2(c3cc(C#CCCO)ccc31)[C@H](C(N)=O)[C@H]1C(=O)O[C@H](c3ccccc3)[C@H](c3ccccc3)N1[C@@H]2c1ccc(OCCO)cc1` : -0.624

Reported z-score of `C=CCNC(=O)[C@@H]1[C@H]2C(=O)O[C@H](c3ccccc3)[C@H](c3ccccc3)N2[C@H](c2ccc(O)cc2)[C@@]12C(=O)N(C(=O)OCCOC)c1ccc(C#CCCO)cc12` : 1.05

Reported z-score of C=C(C)[C@@H]1CC=C(C(O)C2C=CC3C(=O)N(c4ccccc4)C(=O)C3N2Nc2ccc(C#N)cc2)CC1 (some centres undefined) : 0.807

Reported z-score of `[N-]=[N+]=NCc1ccccc1[C@H]1OC(c2ccc(OCCCO)cc2)=N[C@@]1(CCS(=O)(=O)c1ccccc1)C(=O)NCc1ccccc1` : -2.28

Reported z-score of `Cc1ccc(S[C@]2(C(=O)NCC(C)C)CC(=O)N(C3Cc4ccccc4C3)[C@@H]2c2ccc(CO)cc2I)cc1` : -0.233

Reported z-score of `O=C1[C@@H]2[C@@H](CC(COc3ccccc3)=C3[C@@H](CCc4ccccc4)OB(O)C[C@@H]32)C(=O)N1Cc1ccccc1` : 1.31

Reported z-score of `C=C(COC)C(=O)CC[C@@H](OC(=O)c1cccnc1)c1ccccc1OCCO` : -3.07

Reported z-score of `C=C[C@H](C)[C@H](OC(=O)Nc1ccc(OC)cc1)c1ccc(OCCO)cc1` : -1.15

Reported z-score of O=C1OCCC=C[C@H]2OC34C=CCN(c5ccc(Cl)cc5)C(=O)[C@H]3N(CCCCCCO)C(=O)[C@@H]4C12 (some centres undefined) : -0.278

Reported z-score of CCCCCN1CC=CC23O[C@@H]4C=CCOC(=O)[C@@H]4[C@H]2C(=O)N(CCO)[C@@H]3C1=O (some centres undefined) : 1.34

Reported z-score of `[N-]=[N+]=Nc1ccccc1C[C@]1(C(=O)O)N=C(c2ccc(OCCCO)cc2)O[C@H]1c1ccccc1` : 0.283

Reported z-score of CS(=O)(=O)CCOC(=O)C1=CC(CCCO)=CC(C2CC2)N(Cc2cccc(OC(F)(F)F)c2)C=C1C(=O)OCCS(C)(=O)=O (centres undefined) : -2.11

Reported z-score of `NC(=O)NCC#Cc1ccc2c(c1)[C@]1(C(=O)N2)[C@H](C(=O)N2CCN(c3ncccn3)CC2)[C@H]2C(=O)O[C@H](c3ccccc3)[C@H](c3ccccc3)N2[C@@H]1c1ccc(OCCO)cc1` : -0.232

Reported z-score of `C#C[C@@H](CC)O[Si](C#CCCCC#N)(C(C)C)C(C)C` : -0.574

Reported z-score of `CN(C)C(=O)[C@@]1(Cc2ccccc2)COC(c2ccc(OCCCO)cc2)=N1` : -0.627

Reported z-score of `CC(C)C(=C=CC[C@@H](O)c1cccc(OCCO)c1)C[C@@H](O)COCc1ccccc1` : -1.18

Reported z-score of `Cc1ccc(S[C@]2(C(=O)NCc3ccccc3)CC(=O)N(Cc3cc(C(F)(F)F)cc(C(F)(F)F)c3)[C@@H]2c2ccc(CO)cc2I)cc1` : -0.261

Reported z-score of `Nc1cc(Br)ccc1C(=O)O` : 1.1
